Where these numbers come from: ChEMBL document CHEMBL4699486

molecular target: Neuropeptides B/W receptor type 1 (Homo sapiens); assay: Antagonist activity at human NPBWR1 assessed as inhibition of agonist-induced cAMP accumulation by cAMP assay
Sequence (P48145 whole entry): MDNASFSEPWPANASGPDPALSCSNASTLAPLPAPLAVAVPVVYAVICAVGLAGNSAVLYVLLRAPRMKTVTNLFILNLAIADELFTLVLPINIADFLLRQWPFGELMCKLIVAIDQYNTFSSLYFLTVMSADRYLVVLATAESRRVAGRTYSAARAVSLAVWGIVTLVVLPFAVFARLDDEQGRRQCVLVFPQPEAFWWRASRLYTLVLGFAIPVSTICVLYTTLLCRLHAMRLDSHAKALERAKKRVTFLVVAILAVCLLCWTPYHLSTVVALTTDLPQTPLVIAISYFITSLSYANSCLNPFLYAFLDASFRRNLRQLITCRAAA
Form field: IC50 (one value per entry).

- Query Smiles: "O=[N+]([O-])c1ccc2nc(-c3ccc(Cl)c(Cl)c3)[nH]c2c1"
  System Tested: "Neuropeptides B/W receptor type 1 (Homo sapiens)"
  Lt Gt Eq: ">"
  IC50 (µM): 31.6
- Query Smiles: "NS(=O)(=O)c1ccc(-c2nc3cc([N+](=O)[O-])ccc3[nH]2)cc1"
  System Tested: "Neuropeptides B/W receptor type 1 (Homo sapiens)"
  Lt Gt Eq: ">"
  IC50 (µM): 31.6
- Query Smiles: "O=[N+]([O-])c1ccc2[nH]c(-c3ccc(Cl)c(Br)c3)nc2c1"
  System Tested: "Neuropeptides B/W receptor type 1 (Homo sapiens)"
  Lt Gt Eq: ">"
  IC50 (µM): 31.6
- Query Smiles: "O=[N+]([O-])c1ccc2nc(-c3ccc(Cl)cc3)[nH]c2c1"
  System Tested: "Neuropeptides B/W receptor type 1 (Homo sapiens)"
  Lt Gt Eq: "="
  IC50 (µM): 2.69
- Query Smiles: "O=[N+]([O-])c1ccc2[nH]c(-c3c(Cl)cc(Cl)cc3I)nc2c1"
  System Tested: "Neuropeptides B/W receptor type 1 (Homo sapiens)"
  Lt Gt Eq: "="
  IC50 (µM): 0.205
- Query Smiles: "CC(=O)c1cccc(-c2nc3cc([N+](=O)[O-])ccc3[nH]2)c1"
  System Tested: "Neuropeptides B/W receptor type 1 (Homo sapiens)"
  Lt Gt Eq: ">"
  IC50 (µM): 31.6
- Query Smiles: "CC(=O)c1ccccc1-c1nc2cc([N+](=O)[O-])ccc2[nH]1"
  System Tested: "Neuropeptides B/W receptor type 1 (Homo sapiens)"
  Lt Gt Eq: ">"
  IC50 (µM): 31.6
- Query Smiles: "O=[N+]([O-])c1ccc2nc(-c3ccccc3Cl)[nH]c2c1"
  System Tested: "Neuropeptides B/W receptor type 1 (Homo sapiens)"
  Lt Gt Eq: "="
  IC50 (µM): 10.7
- Query Smiles: "O=[N+]([O-])c1ccc2[nH]c(-c3ccc(-c4ccccc4)cc3)nc2c1"
  System Tested: "Neuropeptides B/W receptor type 1 (Homo sapiens)"
  Lt Gt Eq: "="
  IC50 (µM): 4.88
- Query Smiles: "O=[N+]([O-])c1ccc2[nH]c(-c3ccc(C(F)(F)F)cc3)nc2c1"
  System Tested: "Neuropeptides B/W receptor type 1 (Homo sapiens)"
  Lt Gt Eq: ">"
  IC50 (µM): 31.6
